- Tested on: ERK2
- Construct: gene MAPK1
- conditionSet: concentration: 1 μM, replicates: in singlicate; n = 1;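 note: KINOMEscan kinase panel screen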
Overview of recorded %Inh for various compounds
quantityName: %Inh (%)

COc1ccc(C2=C(Nc3cccc(C(=O)O)c3)C(=O)NC2=O)cc1
7
Cc1nnc(-c2ccc3occ(-c4ccc(S(C)=O)cc4)c3c2)[nH]1 (centres unmarked)
8
Cc1cc(NCC(c2ccccc2)c2ccccc2)nc(NCc2ccc(C(F)(F)F)cc2)n1
0
Cl.O=C(Nc1cccc(-c2nn3ncccc3c2-c2ccnc(Nc3cccnc3)n2)c1)c1c(F)cccc1F
0
O=C(O)COc1ncnc2cc(-c3ccc4[nH]ncc4c3)sc12
24

----------
- System: RSK1(Kin.Dom.1-N-terminal)
- Construct: gene RPS6KA1
- conditionSet: concentration: 1 μM, replicates: in singlicate; n = 1
quantityName: %Inh

O=C1NC(=O)C(N2CCc3ccccc32)=C1c1ccccc1Cl
0%
Cn1ccc2ncnc(Oc3ccc(Nc4nc5ccccc5[nH]4)cc3)c21
0%
Cc1ccc(-c2cc(-c3c[nH]nc3-c3ccccn3)ccn2)cc1
8%

----------
- Tested on: PIP5K2C
- Construct: gene PIP4K2C
- conditionSet: concentration: 1 μM, replicates: in singlicate; n = 1
Parameter threshold = 20%. Response is true (1) when %Inh meets or exceeds it, else false (0).

O=S(=O)(c1ccc(-c2ccnc3[nH]ccc23)cc1)N1CCCC1
false (0)
Cc1ccccc1-n1cnc2c(N)ncnc21
false (0)
COc1cccc(NC(=O)NC2CCN(c3ccnc(Nc4ccc(F)cc4)n3)C2)c1 (stereo not shown)
false (0)
Cn1cncc1-c1ccc2ncnc(Nc3ccc(OCc4ccccc4)cc3)c2c1
true (1)
NC(=O)c1nnc2ccccc2c1N
false (0)
CCn1c(-c2cccnc2O)nc2cnccc21
false (0)
O=C(Nc1n[nH]c2nc(-c3nccs3)c(Br)cc12)C1CC1
true (1)
CC(=O)Nc1nc2cnc(Nc3cc(NC(=O)c4cccc(CCC#N)c4)ccc3C)nc2s1
false (0)
CC(C)(C)c1ccc(C(=O)Nc2cn3cc(Cl)ccc3n2)cc1
true (1)
COc1ccc(C2=C(Nc3cccc(C(=O)O)c3)C(=O)NC2=O)cc1
false (0)
Cc1cccc(-c2nc(Nc3ccncc3)c3ccccc3n2)n1
false (0)
COc1ccc(Nc2nccc(NCCNC(=O)Nc3ccccc3F)n2)cc1
true (1)
Cn1ccc2ncnc(Oc3ccc(NC(=O)Nc4ccccc4)cc3)c21
false (0)
O=C1NC(=O)C(N2CCc3ccccc32)=C1c1ccccc1Cl
false (0)
Clc1cc(Cl)cc(Nc2ccnc(Nc3cc(Cl)cc(Cl)c3)n2)c1
true (1)
CS(=O)(=O)c1ccc(-c2c(-c3ncn[nH]3)sc(N3CCOCC3)c2C#N)cc1
false (0)
Cc1cc(N2Cc3ccccc3C2)nc(Nc2ccc(S(=O)(=O)N3CCOCC3)cc2)n1.Cl
false (0)
Cc1cc(-c2ccc3c(c2)CC[C@@H](N[C@@H](C)c2ccccc2)C3)cnc1N.Cl
false (0)
Nc1nc(-c2nccs2)c(-c2ccnc3ccccc23)s1
true (1)
CN1C(=O)C(Nc2ccc(Cl)c(C(=O)O)c2)=C(c2ccc(Cl)cc2)C1=O
false (0)
Cc1ccc(NC(=O)Nc2cccc(Cl)c2)cc1-c1ccc(C(=O)Nc2ccncc2)cc1
true (1)
CCn1c(-c2ccccn2)nc2cnccc21
true (1)
O=C(Nc1ccccc1)Nc1cccc(Oc2ccc3nccn3n2)c1
true (1)
O=C(Nc1ccc2c(c1)OCO2)NC1CCN(c2ccnc(Nc3ccc(F)cc3)n2)C1 (stereo not shown)
true (1)
Cc1ccc(NC(=O)Nc2cc(C(C)(C)C)nn2-c2ccccc2)cc1
false (0)

----------
Item-by-item account of %Inh
- Tested on: CDK8
- conditionSet: concentration: 1 μM, replicates: in singlicate; n = 1
quantityName: %Inh (%)

COc1cccc(NC(=O)NC2CCN(c3ccnc(Nc4ccc(F)cc4)n3)C2)c1 (stereo not shown)
61
COc1ccc(Nc2nccc(-c3cccc(NC(=O)c4cc5cc(F)ccc5[nH]4)c3)n2)cc1
56
Cn1cncc1-c1ccc2ncnc(Nc3ccc(OCc4ccccc4)cc3)c2c1
29
Cc1cccc(-c2cc(Nc3ccncc3)c3ccccc3n2)n1
0

----------
Measured %Inh accompanies every entry in the list below.
- Test system: MST2
- Construct: gene STK3
- conditionSet: concentration: 1 μM, replicates: in singlicate; n = 1
quantityName: %Inh (%)

COc1cccc(NC(=O)NC2CCN(c3ccnc(Nc4ccc(F)cc4)n3)C2)c1 (stereo not shown)
17
CN(C)CCN(C)C(=O)c1cc(-c2ccncc2)c(-c2ccc(Cl)c(O)c2)o1.Cl.Cl
0
C[C@@H]1CCCCN1c1cc(-c2ccc3c(N)n[nH]c3c2)nc(N)n1
0
CCCc1ccc(S(=O)(=O)NC2CCN(c3ccnc(Nc4ccc(F)cc4)n3)C2)cc1 (stereo not shown)
0

----------
- Tested on: MLCK
- Construct: gene MYLK3
- conditionSet: concentration: 1 μM, replicates: in singlicate; n = 1
quantityName: %Inh

COc1ccc(Nc2nccc(-c3cccc(NC(=O)c4cc5cc(F)ccc5[nH]4)c3)n2)cc1
9%
O=C1NC(=O)C(N2CCc3ccccc32)=C1c1ccccc1Cl
18%
Cc1ccc(NC(=O)Nc2cccc(Cl)c2)cc1-c1ccc(C(=O)Nc2ccncc2)cc1
0%

----------
- Tested on: WNK4
- conditionSet: concentration: 1 μM, replicates: in singlicate; n = 1
Form field: %Inh (one value per entry).
quantityName: %Inh

CCCc1ccc(S(=O)(=O)NC2CCN(c3ccnc(Nc4ccc(F)cc4)n3)C2)cc1 (stereo not shown)
4%
Cl.Oc1ccc(-c2nc(-c3ccccc3)[nH]c2-c2ccncc2)cc1
60%
CS(=O)(=O)c1ccc(-c2nc3n(c2-c2ccncc2)CCC3)cc1
29%
COc1ccc(Nc2nccc(-c3cccc(NC(=O)c4cc5cc(F)ccc5[nH]4)c3)n2)cc1
59%
O=S(=O)(c1ccc(-c2ccnc3[nH]ccc23)cc1)N1CCCC1
0%
Cc1cccc(-c2nc(-c3ccc(S(C)(=O)=O)cc3)sc2-c2ccnc(NCCc3ccccc3)c2)c1
0%
CS(=O)(=O)c1ccc(-c2c(-c3ncn[nH]3)sc(N3CCOCC3)c2C#N)cc1
0%
Cc1ccc(NC(=O)Nc2cc(C(C)(C)C)nn2-c2ccccc2)cc1
25%
COc1ccc2nc(-c3cccc(C)n3)nc(Nc3ccncc3)c2c1
9%
Cc1cccc(-c2nc(C)cc(Nc3ccncc3)n2)n1
0%

----------
Reported %Inh is given for each of the following compounds.
- Tested on: CLK3
- conditionSet: concentration: 1 μM, replicates: in singlicate; n = 1
quantityName: %Inh (%)

Cc1ccc(NC(=O)Nc2cc(C(C)(C)C)nn2-c2ccccc2)cc1
14
CC(C)(C)c1ccc(C(=O)Nc2cn3cc(Cl)ccc3n2)cc1
2
O=C(Nc1ccccc1)Nc1cccc(Oc2ccc3nccn3n2)c1
0
CCCc1ccc(S(=O)(=O)NC2CCN(c3ccnc(Nc4ccc(F)cc4)n3)C2)cc1 (centres unmarked)
10
COc1ccc(Nc2nccc(-c3cccc(NC(=O)c4cc5cc(F)ccc5[nH]4)c3)n2)cc1
12
Fc1cc(Cl)ccc1Nc1ccnc2cc(-c3ccc(CN4CCCCC4)o3)ccc12
0
Cc1ccccc1-n1cnc2c(N)ncnc21
0
O=C(O)COc1ncnc2cc(-c3ccc4[nH]ncc4c3)sc12
0

----------
- Test system: STK36
- conditionSet: concentration: 1 μM, replicates: in singlicate; n = 1
quantityName: %Inh (%)

Cc1cc(NCC(c2ccccc2)c2ccccc2)nc(NCc2ccc(C(F)(F)F)cc2)n1
0
CS(=O)(=O)c1ccc(-c2c(-c3ncn[nH]3)sc(N3CCOCC3)c2C#N)cc1
1
COc1ccc(C2=C(Nc3cccc(C(=O)O)c3)C(=O)NC2=O)cc1
22
COc1ccc(CNC(=O)NC2CCN(c3ccnc(Nc4cc(OC)c(OC)c(OC)c4)n3)C2)cc1 (centres unmarked)
0
COC(=O)c1c(-c2ccccc2)c2cc(OC)ccc2c(=O)n1Cc1ccccc1
11

----------
Item-by-item account of %Inh
- System: PKAC-alpha
- Construct: gene PRKACA
- conditionSet: concentration: 1 μM, replicates: in singlicate; n = 1
quantityName: %Inh (%)

O=c1cc(N2CCOCC2)nc2n(Cc3cccc(Cl)c3Cl)ccn12 [GSK2286295]
16
Cc1csc(-c2nc(Nc3ccncc3)c3ccccc3n2)n1 [GW869640]
14
Cc1ccc(-c2cc(-c3c[nH]nc3-c3ccccn3)ccn2)cc1 [GW684088]
30
Cc1cccc(-c2nc(Nc3ccncc3)c3ccccc3n2)n1 [GW855857]
23
C[C@@H]1CCCCN1c1cc(-c2ccc3c(N)n[nH]c3c2)nc(N)n1 [GSK2258759]
0
COc1cccc(NC(=O)NC2CCN(c3ccnc(Nc4ccc(F)cc4)n3)C2)c1 (centres unmarked) [GSK1379721]
0
Cn1cncc1-c1ccc2ncnc(Nc3ccc(OCc4ccccc4)cc3)c2c1 [GW320571]
0
COc1ccccc1-c1ccc2c(NC(=O)C3CC3)n[nH]c2n1 [SB-711239]
6

----------
- System: MST3
- Construct: gene STK24
- conditionSet: concentration: 1 μM, replicates: in singlicate; n = 1
quantityName: %Inh (%)

Cc1ccc(NC(=O)Nc2cccc(Cl)c2)cc1-c1ccc(C(=O)Nc2ccncc2)cc1
0
O=S(=O)(c1ccc(-c2ccnc3[nH]ccc23)cc1)N1CCCC1
14
CC(=O)Nc1nc2cnc(Nc3cc(NC(=O)c4cccc(CCC#N)c4)ccc3C)nc2s1
3
Cl.Oc1ccc(-c2nc(-c3ccccc3)[nH]c2-c2ccncc2)cc1
0
Cc1nnc(-c2ccc3occ(-c4ccc(S(C)=O)cc4)c3c2)[nH]1 (stereo not drawn)
11
CCCc1ccc(S(=O)(=O)NC2CCN(c3ccnc(Nc4ccc(F)cc4)n3)C2)cc1 (stereo not drawn)
0
O=C(Nc1n[nH]c2nc(-c3nccs3)c(Br)cc12)C1CCCC1
0
CS(=O)(=O)c1ccc(-c2c(-c3ncn[nH]3)sc(N3CCOCC3)c2C#N)cc1
100
Cc1ccc(NC(=O)Nc2cc(C(C)(C)C)nn2-c2ccccc2)cc1
5
Cc1cc(-c2ccc3c(c2)CC[C@@H](N[C@@H](C)c2ccccc2)C3)cnc1N.Cl
0
CN1C(=O)C(Nc2ccc(Cl)c(C(=O)O)c2)=C(c2ccc(Cl)cc2)C1=O
0
COc1cc2nccc(Nc3ccc(NC(=O)c4ccc(C)cc4)c(O)c3)c2cc1OC.Cl
0
